Target: human Sirtuin 3 (SIRT3), SIRT3 (gene 23410)
Assay: NVS_ENZ_hSIRT3: NovaScreen (NVS) Enzymatic Assay for human Sirtuin 3 (SIRT3) (AID 2283222)
Results filed as inconclusive are left out. The source made the active and inactive calls. The calls were made as follows: active = hit-call score of the fitted dose curve at least 0.9, where 1 is the maximum; inconclusive = response in the unintended direction; inactive = score below 0.9.
In this exercise, the only acceptable responses are true = active, false = inactive

Check out these entries, answers already filled in.
1. CCCN(CCC)N=O :: false
2. Cc1cc2c3c(c1)C(c1ccccc1)=N[C@@H](NC(=O)c1ccncc1)C(=O)N3CC2 :: false
3. Oc1ccc(C(c2ccc(O)cc2)(C(F)(F)F)C(F)(F)F)cc1 :: true

Now, please, on to the next compound.
What did the test return for c1cc2ccc3cccc4ccc(c1)c2c34 ?
false

---

Test: BSK_LPS_SRB: Viability Assessment in the BioMAP Diversity Plus: LPS Assay (AID 2283079);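 also: total protein by sulforhodamine B absorbance as a cytotoxicity measure; measured one day after compound addition; fitted in both directions against DMSO so loss or gain of signal counts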
Details: primary human HUVEC with PBMC
Activity calls are given as the source filed them. Rule for the calls: active = hit-call score of the fitted dose curve at least 0.9, where 1 is the maximum; inactive = score below 0.9.
In this exercise, the only acceptable responses are 1 (active), 0 (inactive)

1. C[C@]12CCC(=O)C=C1CC[C@@H]1[C@@H]2CC[C@@]2(C)[C@H]1CC[C@]2(C)O :: 0
2. Cc1cccc([N+](=O)[O-])c1 :: 0
3. Cc1cc(O)ccc1Cl :: 0

What did the test return for O=S(=O)(O)C(F)(F)C(F)(F)C(F)(F)C(F)(F)C(F)(F)C(F)(F)F ?
0

---

Assay: Tanguay_ZF_120hpf_JAW_legacy: (Legacy) Oregon State University Tanguay Lab 120 Hour Post-fertilization zebrafish Assay for Jaw Malformation (AID 2283638);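 as to AC50: active means more embryos with jaw malformation than DMSO controls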
Inconclusive results are not listed. Activity calls are given as the source filed them. How the source made its calls: active means hit-call score of the fitted dose curve at least 0.9, where 1 is the maximum; inconclusive means response in the unintended direction; inactive means score below 0.9.
quantity-name: AC50

Examples with their reported AC50 follow.
1. Oc1c(Cl)c(Cl)c(Cl)c(Cl)c1Cl :: inactive
2. CCCCCCCCCC[N+](C)(C)CCCCCCCCCC :: inactive
3. Cc1ccccc1CO[C@@H]1C[C@@]2(C(C)C)CC[C@]1(C)O2 :: inactive
4. CC(C)C(=O)OCC(C)(C)C(OC(=O)C(C)C)C(C)C (stereo not given) :: 41.6 µM (active)

Field: next compound
If you can, please state the reported AC50 value of C1CC2OC2CC1C1CO1 (stereo not given) .
inactive

---

Read-out: Matrix Metallopeptidase 1 (MMP1), MMP1 (gene 4312)
Assay: BSK_hDFCGF_MMP1: BioMAP Diversity Plus: hDFCGF Assay for Matrix Metallopeptidase 1 (MMP1) Biomarker Activity (AID 2283064)
Details: primary human foreskin fibroblasts; actives raise or lower the signal
Active and inactive are the calls of the source. Rule for the calls: active = hit-call score of the fitted dose curve at least 0.9, where 1 is the maximum; inactive = score below 0.9.
quantity-name: AC50

Examples with their reported AC50 follow.
1. CCCCCCCCCC[N+](C)(C)CCCCCCCCCC :: 1.97 µM (active)
2. Clc1ccc(C(c2ccccc2Cl)C(Cl)(Cl)Cl)cc1 (centres undefined) :: 9.47 µM (active)
3. O=C(O)C(F)(F)C(F)(F)C(F)(F)C(F)(F)C(F)(F)C(F)(F)C(F)(F)C(F)(F)F :: inactive
4. CCCCCCCCCc1ccc(O)cc1 :: 15.4 µM (active)
5. CC(C)(O)C(=O)Nc1ccc([N+](=O)[O-])c(C(F)(F)F)c1 :: inactive

Field: next molecule
If you can, please state the reported AC50 value of CN(C)c1nc(=O)n(C2CCCCC2)c(=O)n1C .
inactive

---

Biological target: PGR (gene 5241)
Experiment: NVS_NR_hPR: NovaScreen (NVS) Nuclear Receptor Binding Assay for human Progestron Receptor (PR) (AID 2283360);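 also: active means loss of bound radioligand signal versus DMSO baseline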
Inconclusive results are not listed. Activity calls are given as the source filed them. Rule for the calls: active = hit-call score of the fitted dose curve at least 0.9, where 1 is the maximum; inconclusive = response in the unintended direction; inactive = score below 0.9.
In this exercise, the only acceptable responses are y (active), n (inactive)

1. Cc1ccccc1[N+](=O)[O-] :: n
2. Oc1ccc(C(c2ccc(O)cc2)(C(F)(F)F)C(F)(F)F)cc1 :: y
3. CC(C)(c1ccccc1)c1ccc(O)cc1 :: y
4. C[C@]12CCC(=O)C=C1CC[C@@H]1[C@@H]2CC[C@@]2(C)[C@H]1CC[C@]2(C)O :: y

What did the test return for CCC(C)(c1ccc(O)cc1)c1ccc(O)cc1 ?
y

---

Read-out: Cellular tumor antigen p53 (Homo sapiens) (UniProt P04637)
Sequence (P04637 whole entry, looked up): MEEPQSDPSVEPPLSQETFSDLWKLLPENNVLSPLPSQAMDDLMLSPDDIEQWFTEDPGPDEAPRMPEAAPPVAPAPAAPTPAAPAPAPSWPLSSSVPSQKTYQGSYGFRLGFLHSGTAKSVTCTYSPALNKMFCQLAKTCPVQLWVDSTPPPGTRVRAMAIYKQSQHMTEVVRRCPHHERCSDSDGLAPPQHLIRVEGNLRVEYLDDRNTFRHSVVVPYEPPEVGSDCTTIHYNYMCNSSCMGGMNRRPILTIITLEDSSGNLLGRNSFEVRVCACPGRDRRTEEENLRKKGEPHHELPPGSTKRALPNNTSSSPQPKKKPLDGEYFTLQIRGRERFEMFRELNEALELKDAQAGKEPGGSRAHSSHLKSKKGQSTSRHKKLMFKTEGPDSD
Assay: LTEA_HepaRG_TP53: Life Technologies and Expression Analysis (LTEA) Assay for Tumor Protein P53 (TP53) using HepaRG (AID 2283537)
Conditions: mRNA level, 48 h; actives raise or lower the signal
The source made the active and inactive calls. The calls were made as follows: active = hit-call score of the fitted dose curve at least 0.9, where 1 is the maximum; inactive = score below 0.9.
In this exercise, the only acceptable responses are T for active, F for inactive

1) O=S(=O)(O)C(F)(F)C(F)(F)C(F)(F)C(F)(F)C(F)(F)C(F)(F)F :: F
2) Nc1ccc(-c2ccc(N)cc2)cc1 :: F
3) O=NN(c1ccccc1)c1ccccc1 :: F
4) Nn1cnnc1 :: F
5) Cc1cccc(C)c1N :: F

What did the test return for Oc1ccc(Cl)cc1Cl ?
F

What did the test return for CCC(C)(c1ccc(O)cc1)c1ccc(O)cc1 ?
F

What did the test return for CO/C=C(/C(=O)OC)c1ccccc1COc1cccc(C(F)(F)F)n1 ?
T

What did the test return for Clc1ccc(C(Cl)(Cl)Cl)cc1 ?
F

What did the test return for O=C(NC(=O)c1cc(F)c(F)cc1Cl)Nc1cc(F)ccc1N1CCC(C(=O)O)CC1 ?
F

What did the test return for CCCCCCCCCc1ccc(O)cc1 ?
F

---

Assay: ATG_NRF2_ARE_CIS: Attagene CIS-FACTORIAL HepG2 Assay for human Nuclear Factor Erythroid 2 Related Factor 2 (NFR2) response to Antioxidant Response Elements (ARE) (AID 2282992)
Settings: HepG2 Attagene ARE/NRF2 reporter, transcription factor activity; actives raise or lower the signal
Active and inactive are the calls of the source. How the source made its calls: active means hit-call score of the fitted dose curve at least 0.9, where 1 is the maximum; inactive means score below 0.9.
In this exercise, the only acceptable responses are true = active, false = inactive

Check out these entries, answers already filled in.
1. CC(c1ccc(O)cc1)(c1ccc(O)cc1)c1ccc(O)cc1 :: true
2. c1ccc(-c2ccccc2)cc1 :: false
3. CCSC(=O)N(CC)C1CCCCC1 :: false
4. CC(C)C(=O)OCC(C)(C)C(OC(=O)C(C)C)C(C)C (centres undefined) :: false
5. ClC1=C(Cl)[C@]2(Cl)[C@@H]3[C@@H]4C[C@@H]([C@H]5O[C@@H]45)[C@@H]3[C@@]1(Cl)C2(Cl)Cl :: true

What did the test return for COS(=O)(=O)OC ?
false

What did the test return for CCOC(=O)C(O)(c1ccc(Cl)cc1)c1ccc(Cl)cc1 ?
false

What did the test return for O=S(=O)(O)C(F)(F)C(F)(F)C(F)(F)C(F)(F)C(F)(F)C(F)(F)F ?
true

What did the test return for Oc1ccc(C(c2ccc(O)cc2)(C(F)(F)F)C(F)(F)F)cc1 ?
true

What did the test return for N#Cc1ccc(N(CC(N)=O)CC(F)(F)F)cc1C(F)(F)F ?
true

What did the test return for c1cc2ccc3cccc4ccc(c1)c2c34 ?
false

What did the test return for Oc1ccc(Cl)cc1Cl ?
true

What did the test return for CCCCCCCCCC[N+](C)(C)CCCCCCCCCC ?
true

What did the test return for Cc1ccccc1O ?
false

---

Read-out: Human Leukocyte Antigen - DR isotype (HLADR), HLA-DRA (gene 3122)
Test: BSK_BE3C_HLADR: BioMAP Diversity Plus: BE3C Assay for Human Leukocyte Antigen - DR isotype (HLADR) Biomarker Activity (AID 2283032)
Settings: primary human bronchial epithelial cells; actives raise or lower the signal
Calls of active or inactive are those of the source. Rule for the calls: active = hit-call score of the fitted dose curve at least 0.9, where 1 is the maximum; inactive = score below 0.9.
In this exercise, the only acceptable responses are class 1 for active, class 0 for inactive

1) CCC(C)(CC)c1cc(NC(=O)c2c(OC)cccc2OC)on1 :: class 0
2) Sc1ccccc1 :: class 0
3) O=S(=O)(O)C(F)(F)C(F)(F)C(F)(F)C(F)(F)F :: class 0
4) N#Cc1ccc(N(CC(N)=O)CC(F)(F)F)cc1C(F)(F)F :: class 0
5) CN(C)c1nc(=O)n(C2CCCCC2)c(=O)n1C :: class 0
6) O=C(NC(=O)c1cc(F)c(F)cc1Cl)Nc1cc(F)ccc1N1CCC(C(=O)O)CC1 :: class 0
7) Cc1ccc(O)c(C)c1 :: class 0
8) Clc1ccc(C(c2ccccc2Cl)C(Cl)(Cl)Cl)cc1 (stereo not drawn) :: class 0

What did the test return for COS(=O)(=O)OC ?
class 0

What did the test return for Cc1cc2c3c(c1)C(c1ccccc1)=N[C@@H](NC(=O)c1ccncc1)C(=O)N3CC2 ?
class 0

What did the test return for ClC1=C(Cl)[C@]2(Cl)[C@@H]3[C@@H](Cl)[C@H]4O[C@H]4[C@@H]3C1(Cl)C2(Cl)Cl ?
class 0

What did the test return for CCC(C)c1cc([N+](=O)[O-])cc([N+](=O)[O-])c1O (stereo not drawn) ?
class 1

What did the test return for O=C(NC(=O)c1c(F)cccc1F)Nc1cc(Cl)c(OC(F)(F)C(F)F)c(Cl)c1 ?
class 0

---

Biological target: human Retinoic Acid Receptor beta (RARb), RARB (gene 5915)
Assay: ATG_RARb_TRANS: Attagene TRANS-FACTORIAL HepG2 Assay for human Retinoic Acid Receptor beta (AID 2283004)
Results filed as inconclusive are left out. Calls of active or inactive are those of the source. How the source made its calls: active means hit-call score of the fitted dose curve at least 0.9, where 1 is the maximum; inconclusive means response in the unintended direction; inactive means score below 0.9.
In this exercise, the only acceptable responses are t (active), f (inactive)

Check out these entries, answers already filled in.
1. Nc1ccc(-c2ccc(N)cc2)cc1 :: f
2. CN(C)CCO :: f
3. C=CC(N)=O :: f
4. Cc1cc2c3c(c1)C(c1ccccc1)=N[C@@H](NC(=O)c1ccncc1)C(=O)N3CC2 :: f
5. Cc1ccc(O)c(C)c1 :: f
6. ClC1=C(Cl)[C@]2(Cl)[C@@H]3[C@H]4C[C@H]([C@@H]5O[C@H]45)[C@@H]3[C@@]1(Cl)C2(Cl)Cl :: t

Now, please, on to the next molecule.
What did the test return for COc1ccc(O)c(C(C)(C)C)c1 ?
f

Cited source for all entries: PubChem BioAssay (EPA / NIEHS)
